biological target: human neuronal constitutive NOS (hncNOS) (Homo sapiens); assay: Citrulline assay for nitric oxide synthase, hncNOS; settings: recombinant enzyme, 30 μM L-arginine, calmodulin 40-100 nM
Where a name gives a salt, the structure may show the parent alone.
Measured Metric: IC50 (µM)

I: CC(=N)NC/C(C)=C/CC[C@H](N)C(=O)O [Example 2, dihydrochloride]
II: CC(=N)NC/C=C\CC[C@H](N)C(=O)O [Example 6, dihydrochloride]
III: CC(=N)NC/C=C/CC[C@H](N)C(=O)O [Example 8, dihydrochloride]
*Q* Place the items in sequence of falling IC50. // rank by listing labels in the order requested
*A* I, III, II
